pKd listing for selected binders.
target: T1, recombinant human BCMA, in house material (human, UniProt Q02223 4-53, limits assumed); test: ProteOn SPR run 1, antibody captured on Protein A, 25C
T1 construct: also called Human in house BCMA; In house human BCMA
T1 sequence (Q02223 4-53 limits assumed): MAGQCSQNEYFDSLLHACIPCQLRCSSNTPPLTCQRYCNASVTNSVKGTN
pKd: −log10 of the molar value.
propertyMeasured: pKd

CA8 humanised J5M1 (antibody, human IgG1, kappa, V domains shown, Humanised CA8, heavy chain J5 with light chain M1, human IgG1 kappa; also called CA8 J5M1) VH: QVQLVQSGAEVKKPGSSVKVSCKGSGYTFTNYWMHWVRQAPGQGLEWMGATYRGHSDTYYNQKFKGRVTITADTSTSTAYMELSSLRSEDTAVYYCTRGAIYDGYDVLDNWGQGTLVTVSS VL: DIQMTQSPSSLSASVGDRVTITCSASQDISNYLNWYQQKPGKAPKLLIYYTSNLHSGVPSRFSGSGSGTDYTLTISSLQPEDFATYYCQQYRKLPWTFGQGTKLEIKR; 9.84
CA8 humanised J1M1 (antibody, human IgG1, kappa, V domains shown, Humanised CA8, heavy chain J1 with light chain M1, human IgG1 kappa; also called CA8 J1M1) VH: QVQLVQSGAEVKKPGSSVKVSCKASGYTFTNYWMHWVRQAPGQGLEWMGATYRGHSDTYYNQKFKGRVTITADKSTSTAYMELSSLRSEDTAVYYCARGAIYNGYDVLDNWGQGTLVTVSS VL: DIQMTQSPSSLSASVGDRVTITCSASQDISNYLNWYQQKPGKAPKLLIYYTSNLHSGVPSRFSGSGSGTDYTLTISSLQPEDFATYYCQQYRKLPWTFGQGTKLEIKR; 8.82
